target: T1, CT45-IP alanine variant, position 1 peptide on HLA-A*02:01 (human); test: killing
T1 peptide: AIFEMLEGV
Measure Name: binding result

TCR-3 (TCR, V domains shown) Valpha: QKITQTQPGMFVQEKEAVTLDCTYDTSDQSYGLFWYKQPSSGEMIFLIYQGSYDEQNATEGRYSLNFQKARKSANLVISASQLGDSAMYFCGYSNYQLIWGAGTKLIIKP Vbeta: QVTQNPRYLITVTGKKLTVTCSQNMNHEYMSWYRQDPGLGLRQIYYSMNVEVTDKGDVPEGYKVSRKEKRNFPLILESPSPNQTSLYFCASREGTGGYQPQHFGDGTRLSIL	recognises
TCR-12 (TCR, V domains shown) Valpha: QLLEQSPQFLSIQEGENLTVYCNSSSVFSSLQWYRQEPGEGPVLLVTVVTGGEVKKLKRLTFQFGDARKDSSLHITAAQPGDTGLYLCAGGLSDSYDKVIFGPGTSLSVIP Vbeta: EVTQTPKHLVMGMTNKKSLKCEQHMGHRAMYWYKQKAKKPPELMFVYSYEKLSINESVPSRFSPECPNSSLLNLHLHALQPEDSALYLCASSQGVGQEYGYTFGSGTRLTVV	recognises
TCR-8 (TCR, V domains shown) Valpha: QKVTQAQTEISVVEKEDVTLDCVYETRDTTYYLFWYKQPPSGELVFLIRRNSFDEQNEISGRYSWNFQKSTSSFNFTITASQVVDSAVYFCALSGRGSGTYKYIFGTGTRLKVLA Vbeta: GVIQSPRHLIKEKRETATLKCYPIPRHDTVYWYQQGPGQDPQFLISFYEKMQSDKGSIPDRFSAQQFSDYHSELNMSSLELGDSALYFCASSAGTSYNEQFFGPGTRLTVL	recognises
